These data points were gathered from patent US20140178332A1.

Recorded measurements of Av. IC50 (nM) huIL-12, PHA blast assay, one per entry
- TARGET_OR_TEST_SYSTEM: T1, recombinant purified human IL-12 p70 (human, UniProt P29459 23-219)
- T1 sequence 1: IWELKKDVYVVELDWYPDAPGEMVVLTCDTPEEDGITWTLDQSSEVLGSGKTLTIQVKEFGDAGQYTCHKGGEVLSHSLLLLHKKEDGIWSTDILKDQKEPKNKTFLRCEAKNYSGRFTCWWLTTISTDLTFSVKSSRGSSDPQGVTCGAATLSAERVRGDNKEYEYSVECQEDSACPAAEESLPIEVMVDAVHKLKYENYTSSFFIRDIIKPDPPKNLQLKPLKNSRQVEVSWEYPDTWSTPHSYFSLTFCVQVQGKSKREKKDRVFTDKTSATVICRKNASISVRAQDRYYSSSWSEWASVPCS
- T1 sequence 2: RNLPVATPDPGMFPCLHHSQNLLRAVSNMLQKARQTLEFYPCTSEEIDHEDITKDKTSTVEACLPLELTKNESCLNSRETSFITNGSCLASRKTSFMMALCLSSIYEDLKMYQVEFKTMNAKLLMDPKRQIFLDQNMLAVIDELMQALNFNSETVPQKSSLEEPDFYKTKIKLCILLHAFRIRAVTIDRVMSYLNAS
- PROTOCOL_DETAILS: cell-based or functional assay
Quick reminder: number only, in nM, skip the unit.

Please review the following examples before continuing.
anti-IL-12p40 hybrid antibody 1A6.7 (antibody, human IgG1, kappa, L234A L235A, V domains shown) VH: QVTLKESGPGILKPSQTLSLTCSFSGFSLSTSGMGVSWIRQPSGKGLEWLAHIWWDGDNYYNPSLKSQLTISKDTSRNQVFLRIATVDTADTATYYCARRTRVNYAMDYWGQGTSVTVSS VL: DIVMTQSPDSLAVSLGERATINCKASQSVSNDVAWYQQKPGQPPKLLIYYASNRYTGVPDRFSGSGSGTDFTLTISSLQAEDVAVYYCQQDYNSPWTFGGGTKVEIKR :: 0.29
anti-IL-12p40 hybrid antibody 1D4.4 (antibody, human IgG1, kappa, L234A L235A, V domains shown) VH: EVTLRESGPALVKPTQTLTLTCTFSGFSLSKSVMGVSWIRQPPGKALEWLAHIYWDDDKYYNPSLKSRLTISKDTSKNQVVLTMTNMDPVDTATYYCARRGIRSAMDYWGQGTTVTVSS VL: SVVMTQTPKFLLVSAGDRVTITCKASQSVSNDVAWYQQKPGQSPKLLIYYASNRYTGVPDRFTGSGYGTDFTFIISTVRAEDLAVYFCQQDYNSPWTFGGGTKLEIKR :: 0.64

[ask] Given the binder anti-IL-12p40 hybrid antibody 1A6.8 (antibody, human IgG1, kappa, L234A L235A, V domains shown) VH: EVTLRESGPALVKPTQTLTLTCTFSGFSLSTSGMGVSWIRQPPGKALEWLAHIWWDGDNYYNPSLKSRLTISKDTSKNQVVLTMTNMDPVDTATYYCARRTRVNYAMDYWGQGTTVTVSS VL: SVVMTQTPKFLLVSAGDRVTITCKASQSVSNDVAWFQQKPGQSPKLLIYYASNRYTGVPDRFTGSGYGTDFTFTISTVQAEDLAVYFCQQDYNSPWTFGGGTKLEIKR , what is its reported Av. IC50 (nM) huIL-12, PHA blast assay?
[reply] 0.08
